Measured values drawn from ChEMBL document CHEMBL3396973 for this set.

- SUBJECT_OF_TEST: Proto-oncogene tyrosine-protein kinase ROS (Homo sapiens)
- Sequence (P08922 whole entry): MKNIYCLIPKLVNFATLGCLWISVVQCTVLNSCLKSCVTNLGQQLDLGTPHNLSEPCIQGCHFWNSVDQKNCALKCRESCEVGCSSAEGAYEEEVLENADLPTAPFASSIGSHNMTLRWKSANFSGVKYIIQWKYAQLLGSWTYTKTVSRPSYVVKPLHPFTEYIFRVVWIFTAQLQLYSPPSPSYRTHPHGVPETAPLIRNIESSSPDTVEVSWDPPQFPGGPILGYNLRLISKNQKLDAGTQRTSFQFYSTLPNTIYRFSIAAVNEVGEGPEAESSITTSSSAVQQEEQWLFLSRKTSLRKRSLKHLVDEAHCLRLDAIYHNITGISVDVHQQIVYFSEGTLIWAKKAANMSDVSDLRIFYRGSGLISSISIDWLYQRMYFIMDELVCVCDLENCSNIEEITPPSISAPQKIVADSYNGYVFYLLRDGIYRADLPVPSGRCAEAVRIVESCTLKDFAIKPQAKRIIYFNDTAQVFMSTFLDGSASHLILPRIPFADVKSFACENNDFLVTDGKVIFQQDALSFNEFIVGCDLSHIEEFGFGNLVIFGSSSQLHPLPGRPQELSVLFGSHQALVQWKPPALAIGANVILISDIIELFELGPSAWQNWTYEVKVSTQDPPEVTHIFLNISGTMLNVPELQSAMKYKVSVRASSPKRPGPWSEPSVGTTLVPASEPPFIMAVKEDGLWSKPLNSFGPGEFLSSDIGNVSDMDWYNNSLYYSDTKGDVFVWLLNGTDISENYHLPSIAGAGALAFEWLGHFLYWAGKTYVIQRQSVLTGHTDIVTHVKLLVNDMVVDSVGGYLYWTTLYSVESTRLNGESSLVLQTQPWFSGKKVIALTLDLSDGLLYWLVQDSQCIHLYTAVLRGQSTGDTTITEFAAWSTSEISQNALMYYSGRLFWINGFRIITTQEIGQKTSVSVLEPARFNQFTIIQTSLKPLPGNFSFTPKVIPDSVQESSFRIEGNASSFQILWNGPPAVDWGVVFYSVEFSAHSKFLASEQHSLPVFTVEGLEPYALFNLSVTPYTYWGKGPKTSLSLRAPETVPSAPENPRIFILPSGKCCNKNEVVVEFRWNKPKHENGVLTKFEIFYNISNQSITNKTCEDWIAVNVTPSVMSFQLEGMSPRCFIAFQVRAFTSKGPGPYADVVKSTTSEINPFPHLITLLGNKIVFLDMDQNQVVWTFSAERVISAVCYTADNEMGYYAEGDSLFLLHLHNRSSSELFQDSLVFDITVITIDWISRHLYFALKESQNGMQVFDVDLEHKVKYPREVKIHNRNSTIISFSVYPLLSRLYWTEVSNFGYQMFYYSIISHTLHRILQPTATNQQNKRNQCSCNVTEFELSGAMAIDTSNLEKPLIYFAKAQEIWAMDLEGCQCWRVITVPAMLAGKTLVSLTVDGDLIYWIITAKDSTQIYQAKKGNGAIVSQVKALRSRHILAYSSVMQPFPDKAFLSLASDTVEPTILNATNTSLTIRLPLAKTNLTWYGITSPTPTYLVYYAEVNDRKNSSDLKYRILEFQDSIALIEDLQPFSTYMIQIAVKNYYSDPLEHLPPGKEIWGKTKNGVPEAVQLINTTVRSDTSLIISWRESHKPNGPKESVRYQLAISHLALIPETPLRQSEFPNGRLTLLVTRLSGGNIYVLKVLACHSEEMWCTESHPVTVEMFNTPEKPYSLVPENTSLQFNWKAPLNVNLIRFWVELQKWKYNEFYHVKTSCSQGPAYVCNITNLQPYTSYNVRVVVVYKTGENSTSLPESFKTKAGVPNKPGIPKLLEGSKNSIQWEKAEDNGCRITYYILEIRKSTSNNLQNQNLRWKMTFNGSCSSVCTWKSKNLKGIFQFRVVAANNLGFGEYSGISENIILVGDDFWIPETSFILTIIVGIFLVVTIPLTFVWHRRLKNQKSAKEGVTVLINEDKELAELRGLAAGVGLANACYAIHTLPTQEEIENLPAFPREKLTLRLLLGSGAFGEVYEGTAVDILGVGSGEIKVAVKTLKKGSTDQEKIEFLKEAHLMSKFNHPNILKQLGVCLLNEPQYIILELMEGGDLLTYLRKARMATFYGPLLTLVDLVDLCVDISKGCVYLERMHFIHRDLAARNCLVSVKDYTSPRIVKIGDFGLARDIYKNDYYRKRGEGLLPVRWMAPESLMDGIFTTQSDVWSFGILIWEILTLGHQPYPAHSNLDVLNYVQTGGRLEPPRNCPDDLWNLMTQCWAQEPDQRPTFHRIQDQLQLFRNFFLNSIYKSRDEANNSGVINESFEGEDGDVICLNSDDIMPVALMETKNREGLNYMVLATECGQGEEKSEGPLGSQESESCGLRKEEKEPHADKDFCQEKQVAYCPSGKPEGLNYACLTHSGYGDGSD
METRIC: log10 of IC50 (log10 of the value in nM)
Note: values are log10 of IC50 expressed in nM.

[
  {
    "ITEM_SMILES": "Cc1ncc(-c2ccnc(-c3cccnc3)c2)c(-c2ccc(F)cc2Cl)n1",
    "log10 of IC50": 2.76
  },
  {
    "ITEM_SMILES": "COc1cc(C)cc(-c2nn(CC#N)cc2-c2cc(NCCCN3CCOCC3)nc(-c3cccnc3)n2)c1",
    "log10 of IC50": 1.94
  },
  {
    "ITEM_SMILES": "COc1cc(C)cc(-c2nn(CC#N)cc2-c2cc(NCCCO)nc(-c3cccnc3)n2)c1",
    "log10 of IC50": 2.08
  },
  {
    "ITEM_SMILES": "Cc1ncc(-c2ccnc(-c3cccnc3)c2)c(-c2ccc(Cl)cc2Cl)n1",
    "log10 of IC50": 2.52
  },
  {
    "ITEM_SMILES": "Cc1cc(O)cc(-c2nn(CC#N)cc2-c2cc(NC[C@H](C)O)nc(-c3cccnc3)n2)c1",
    "log10 of IC50": 0.23
  }
]

Problem: Param item = `Cc1cc(O)cc(-c2nn(CC#N)cc2-c2cc(NCC(C)C)nc(-c3cccnc3)n2)c1` ; retrieve measured log10 of IC50.
Result: 2.89

Problem: Param item = `COCCCNc1cc(-c2cnc(C)nc2-c2ccc(Cl)cc2Cl)nc(-c2cccnc2)n1` ; retrieve measured log10 of IC50.
Result: 2.55

Problem: Param item = `COc1cc(C)cc(-c2nn(CC#N)cc2-c2cc(NCCCCO)nc(-c3cccnc3)n2)c1` ; retrieve measured log10 of IC50.
Result: 1.75

Problem: Param item = `COc1cc(C)cc(-c2nn(CC#N)cc2-c2cc(NCC(C)C)nc(-c3cccnc3)n2)c1` ; retrieve measured log10 of IC50.
Result: 2.96

Problem: Param item = `COc1cc(C)cc(-c2nn(CC#N)cc2-c2cc(NCCN3CCOCC3)nc(-c3cccnc3)n2)c1` ; retrieve measured log10 of IC50.
Result: 2.17

Problem: Param item = `Cc1cc(O)cc(-c2nn(CC#N)cc2-c2cc(NCCCO)nc(-c3cccnc3)n2)c1` ; retrieve measured log10 of IC50.
Result: 2.03
